Measured values drawn from ChEMBL document CHEMBL4385627 for this set.

- Test system: Vero
- assay: Cytotoxicity against African green monkey Vero cells after 48 hrs by MTT assay
- Type: cell-based
- stated_conditions: Chlorocebus sabaeus
property: pIC50
Numbers only, as −log10 of the molar value.

For `O=Cc1c(-c2cc3cc(Br)ccc3oc2=O)[nH]c2ccccc12` , write its pIC50. 4.00
